Test system: MCF-7-AdrR cells
ASSAY_EXPLANATION: TMR (tetramethylrosamine chloride) accumulation, in vitro drug uptake model
Assay type: cell-based, human
APPLIED_CONDITIONS: Homo sapiens, 0.5 h, read-out: concentration half maximally effective on TMR accumulation
Readings of EC50 for the listed compounds

- SMILES_STR: "CC1=C2C[C@H]3[C@@H](CC=C4C[C@@H](O)CC[C@@]43C)[C@@H]2CC[C@]12O[C@@H]1C[C@H](C)CN[C@H]1[C@H]2C"
  EC50: "~1000 nM"

Now let's try a different one.
[in] # get_value(readout='EC50', item= C[C@H]1CC[C@]2(NC1)O[C@H]1C[C@H]3[C@@H]4CC[C@H]5C[C@@H](O)CC[C@]5(C)[C@H]4CC[C@]3(C)[C@H]1[C@@H]2C )
[out] ~1000 nM
